Data provenance: ChEMBL document CHEMBL1201862

- System: MCF7
- test_protocol: NCI tumour cell line growth inhibition, 48 h
Calls of active or inactive are those of the source. Rule as the data show it: active = GI50 up to about 1.1 µM and inactive = higher.
API: response.call in active, inactive

Inquiry: Query: recorded result category for Cc1ccc(Cc2nnc(S)[nH]2)cc1 in this test
Reply text: inactive

Inquiry: Which outcome was entered for the molecule CC(C)(Cc1ccccc1)N1C(=O)N1C(C)(C)Cc1ccccc1 in this test?
Reply text: inactive

Inquiry: Hey, what did the test say about O=[N+]([O-])c1cc(Cl)c(Cl)cc1[N+](=O)[O-] ?
Reply text: inactive

Inquiry: Status in this test for CCC(=S)N(C)O ?
Reply text: inactive

Inquiry: Recorded test call requested for Cc1c2c(n(CCc3ccc(Cl)cc3)c1C)NN=C(C#N)S2(=O)=O
Reply text: inactive

Inquiry: Just curious, what result did CN(C)c1ccc(-c2c(C#N)c(-c3ccccc3)n(NS(=O)(=O)c3ccccc3)c(=O)c2C#N)cc1 get here?
Reply text: inactive

Inquiry: Each molecule tested received a call. Report the one for O=C1c2ccccc2CN1c1ccc(O)cc1 .
Reply text: inactive

Inquiry: Could you check what this test reported for C[C@@H]1C[C@H]2CC[C@H](O2)[C@H](C)C(=O)O[C@@H](C)C[C@@H]2CC[C@@H](O2)[C@@H](C)C(=O)O[C@H](C)C[C@H]2CC[C@H](O2)[C@H](C)C(=O)O[C@@H](C)C[C@@H]2CC[C@@H](O2)[C@@H](C)C(=O)O1 ?
Reply text: active

Inquiry: Given NC(=O)c1cccc([C@@H]2O[C@H](CO)[C@@H](O)[C@H]2O)c1 , state the outcome it received in this test.
Reply text: inactive

----------
- Test system: OVCAR-3
- test_protocol: NCI tumour cell line growth inhibition, 48 h
Active and inactive are the calls of the source. Rule as the data show it: active = GI50 up to about 1.1 µM and inactive = higher.
readout: GI50

Per the record, CN1CC=C(OP(=O)(NCc2ccccc2)N(CCCl)CCCl)CC1 (stereo unspecified) has GI50 of > 100 µM (inactive)

Lab note: measured GI50 of COc1cc(-c2oc3c(OC)c(O)c(OC)c(O)c3c(=O)c2OC)cc(O)c1OC was 24.7 µM (inactive)

Looking up N#CC(C#N)=C1/C(=C/C=C/C=C/C=C/c2ccc(N3CCCCC3)s2)S(=O)(=O)c2ccccc21 , I found its GI50 recorded as > 100 µM (inactive)

The molecule identified as CSc1s[s+]c(SC)c1-c1ccccc1 registered its GI50 at 15 µM (inactive)

response.value for Cc1c2n(c(=O)[nH]c1=O)C1OC(CO)C(N=[N+]=[N-])C1O2 (stereo unspecified) (field: GI50) = > 100 µM (inactive)

According to the records, this molecule C=C(N=[N+]=[N-])c1cn(C2CC(O)C(CO)O2)c(=O)[nH]c1=O (stereo unspecified) displays GI50 of > 100 µM (inactive)

Value of measured GI50 for the entry CC(=O)Oc1cccc2c1C(=O)c1c(OC(C)=O)cc(C)cc1C2=O : 16.4 µM (inactive)

Kindly note the recorded GI50 for COc1cc(OC)cc(C(=O)CC(=O)c2cc(OC)cc(OC)c2)c1 , which is > 100 µM (inactive)

GI50 recorded for this molecule, NC(=O)C1=NNc2ccccc2C(=O)N1c1ccccc1 , is > 100 µM (inactive)

The molecule listed as CCOP(=S)(OCC)Oc1ccc2c(c1)OC(=O)C1(Cl)C2(C)C2(Cl)C(=O)Oc3cc(OP(=S)(OCC)OCC)ccc3C12C (stereo unspecified) has a reported GI50 of 14.6 µM (inactive)

Input CN(/N=C/c1ccnc2ccccc12)c1ccc(Cl)cc1[N+](=O)[O-] . Output GI50: 80.9 µM (inactive)

Sure, the documented GI50 for O=C(CCCC(=O)N1CC(CCl)c2ccc([N+](=O)[O-])cc21)N1CC(CCl)c2ccc([N+](=O)[O-])cc21 (stereo unspecified) is > 100 µM (inactive)

The recorded GI50 for CN(C)CCCNC(=O)N/N=C/c1ccc(O)cc1 is > 100 µM (inactive)

For record Cc1c(/C=N/N(C)C)oc2c1cc(O)c1ncccc12 the listed GI50 is 2.66 µM (inactive)

// GI50 lookup, molecule = C=CCn1c(=O)n(CC=C)c(=O)n(CC=C)c1=O , result: > 100 µM (inactive)

# GI50 (molecule: COc1cc2c(cc1OC)C1Cc3ccc(OC)c(OC)c3C[N+]1([O-])CC2 (stereo unspecified) ) is > 100 µM (inactive)

Data point: COC(=O)/C=C1\SC2(O\C1=N/c1ccccc1)C1CC3CC(C1)CC2C3 (stereo unspecified) ; GI50 = > 100 µM (inactive)

GI50 for CC(=O)Nc1c(S(=O)(=O)c2ccccc2)c(C)c(C)n1Cc1ccccc1 is 52.8 µM (inactive)

Documented GI50 of O=C1NC(=O)/C(=C\c2ccncc2)N1 : > 100 µM (inactive)

Field GI50 (entry Cc1cc2c(O)c(c1)CN(Cc1ccccc1)Cc1cc(C)cc(c1O)CN(Cc1ccccc1)Cc1cc(C)cc(c1O)CN(Cc1ccccc1)C2 ) reads > 100 µM (inactive)

Form: molecule = Cc1cc(-c2ccc(C(=O)C(Cl)(Cl)Cl)[nH]2)on1 ; GI50 = 25.1 µM (inactive)

----------
- Test system: SNB-75
- test_protocol: NCI tumour cell line growth inhibition, 48 h
Activity calls are given as the source filed them. Rule as the data show it: active = GI50 up to about 1.1 µM and inactive = higher.
Just give me one of these, please: active, inactive

Inquiry: Field: outcome | Entry: CCO/C=C1\N=C(c2ccc(Cl)c(Cl)c2)OC1=O
Reply text: inactive

Inquiry: Recorded test call requested for CC(NC(=O)OCc1ccccc1)NC(=O)OC(C)(C)C (stereo not given)
Reply text: inactive

Inquiry: Lab log entry: COC(=O)/C=C/c1ccc(OP(=O)(O)O)c(OC)c1 — outcome as called in the assay?
Reply text: inactive

Inquiry: Please state the recorded outcome for this compound: Cc1c(/C=N/N(C)C)oc2c1cc(O)c1ncccc12
Reply text: inactive

Inquiry: Fill in: this test's call for Nc1ccccc1-n1c2c(c3ccccc3c1=O)C(=O)c1ccccc1-2 is ___
Reply text: inactive

Inquiry: Look up the recorded call for O=C1C([P+](c2ccccc2)(c2ccccc2)c2ccccc2)=C([O-])C(=Cc2ccc(Cl)c(Cl)c2)C([O-])=C1[P+](c1ccccc1)(c1ccccc1)c1ccccc1 in this test.
Reply text: inactive

Inquiry: Hello, I am checking results. What call was entered for O=C(O)CCC(NC(=O)c1ccc(CNc2nc3cc(C(F)(F)F)ccc3nc2C(=O)O)cc1)C(=O)O (stereo not given) ?
Reply text: inactive

Inquiry: I'd appreciate the recorded outcome for COc1cc2c(cc1OC)-c1[nH]c3ccc(C#N)cc3c1CC(=O)N2 from this test.
Reply text: active

Inquiry: Name the outcome recorded for CCOC(=O)CC1c2ccc(O)cc2OC(=O)C1c1ccc(N)cc1 (stereo not given) in the assay.
Reply text: inactive

Inquiry: Which outcome was assigned to OCCCCCCCCCCCOc1ccc(C2OCC3(CC=CCC3)CO2)cc1 (stereo not given) in this test?
Reply text: inactive

----------
- Test system: HOP-92
- test_protocol: NCI tumour cell line growth inhibition, 48 h
Calls of active or inactive are those of the source. Cut-off read from the data, not from the text of the source: active = GI50 up to about 1.1 µM and inactive = higher.
Respond using exactly one of the listed classes: active, inactive

Inquiry: Which outcome was assigned to COc1cc(OC)cc(C(=O)CC(=O)c2cc(OC)cc(OC)c2)c1 in this test?
Reply text: inactive

Inquiry: Record request — test call for O=Cc1cn(CCCCCn2cc(C=O)c3ccccc32)c2ccccc12
Reply text: inactive

Inquiry: Look up the recorded call for COc1ccc2c(c1)/C(=C\c1cccc(/C=C3/C(=O)Nc4ccc(OC)cc43)n1)C(=O)N2 in this test.
Reply text: inactive

Inquiry: Which result was noted for this compound in the test: C=Cc1ccccc1C1C(C(=O)OCC)=C(C)N=C2OC(C(=O)OC)C(=O)N21 (configuration not stated)
Reply text: inactive

Inquiry: Please share the test call associated with COc1ccc(Cc2c3cc(OC)c(OC)cc3cc[n+]2C)cc1 .
Reply text: inactive

Inquiry: Hi team, can someone confirm the assay call for CN1CCCCCC(=N\O)/C(=N/O)CCCCC1 ?
Reply text: inactive

Inquiry: Query: recorded result category for COc1cc(Cl)c2c3c(c(C(=O)c4ccccc4)oc13)CCC2 in this test
Reply text: active

Inquiry: Record request — test call for C=CC(=O)NCCC(=O)OCn1cc(F)c(=O)[nH]c1=O
Reply text: inactive

Inquiry: Returns: the outcome recorded for Cn1nc(S(N)(=O)=O)s/c1=N/C(N)=S in this assay.
Reply text: inactive

Inquiry: Fill in: this test's call for Cc1c2n(c(=O)[nH]c1=O)C1OC(CO)C(N=[N+]=[N-])C1O2 (configuration not stated) is ___
Reply text: inactive

Inquiry: GET /call?item= CC(=O)c1ccc2c3c1[C@H]1O[C@H]1c1cccc(c1-3)[C@@H]1O[C@H]21 returns the recorded outcome of this test.
Reply text: inactive

Inquiry: Hey, what did the test say about NNC1=N/C(=C\c2ccccc2O)C(=O)N1 ?
Reply text: inactive

Inquiry: Record request — test call for Cc1ccc(C(=O)/C=C(\O)C(=O)NC23CC4CC(CC(C4)C2)C3)cc1
Reply text: inactive

Inquiry: I would be grateful if you could indicate the recorded call for COC(=O)[C@H]1N[C@@H](C(=O)OC)C23CCC[C@H]2CC[C@]1(C(OC)OC)C3 .
Reply text: inactive

Inquiry: Dear colleague, could you share the recorded outcome for COc1ccc(NCc2cnc3nc(N)nc(N)c3c2C)cc1 when you have a moment?
Reply text: inactive

Inquiry: Hi, sorry to bother you, what did the test record for CSC1=NN(C(C)=O)C(C(OC(C)=O)C(OC(C)=O)C(OC(C)=O)C(COC(C)=O)OC(C)=O)S1 (configuration not stated) ?
Reply text: inactive

Inquiry: Give the logged outcome of this assay for the following compound: COC12c3ccccc3-c3ccccc3C1[C@@H](C(=O)O)[C@H]2C(=O)O (some centres not stated)
Reply text: inactive

Inquiry: Answer briefly: the call reported for N[C@H](Cc1ccc2oc3cc(=O)c4ccccc4c-3nc2c1)C(=O)O in this assay.
Reply text: inactive

Inquiry: Could you please tell me the result logged for CCOC(=O)C(=O)NCCCN1CCOCC1 in this assay?
Reply text: inactive

Inquiry: For Cn1c2ccccc2n2c3ccccc3c(=O)c(C#N)c12 , which call appears in the assay record?
Reply text: inactive

Inquiry: Could you kindly confirm the outcome this assay logged for NC(=O)c1nc[nH]c1/N=N/SCC(N)C(=O)O (configuration not stated) ?
Reply text: inactive

Inquiry: Entry O=C(C/N=C(\CN(c1ccccc1)c1ccccc1)Oc1ccc(Cl)cc1Cl)n1ccnc1 : call = ?
Reply text: inactive
